Provenance of the data: PubChem BioAssay (NCI)

Tested on: SNB-19 CNS
Test: NCI-60 one-dose screen, 48 h (100 = growth as untreated, 0 = no growth, -100 = all killed)
Conditions: 10 µM unless noted
About 83,000 compounds went through this panel and 20% of them were active in at least one assay; those are over-represented in the sample as a whole. Calls of active or inactive are those of the source. Rule for the calls: active = growth percent below 10; inactive = the rest.
Exercise: for every item that follows, state its recorded growth.

Please give growth, item by item, for the list that follows.
1. CCN1CCN(c2nc(C)cc(NCc3cc(Nc4ccnc5cc(Cl)ccc45)ccc3F)n2)CC1
2. Cc1ccc(Cc2cnc(NC(=O)c3ccc4noc(-c5ccccc5)c4c3)s2)cc1
3. O=C1CCC2=C3C4CCCCC4C(=O)C4CCCC(OC2C1)C34 (stereo not drawn)
4. C=C(C)[C@@H]1CC[C@]2(C)[C@H](CC=C3[C@@H]4CC(C)(C)CC[C@]4(C(N)=O)CC[C@]32C)[C@@]1(C)CCC#N

1. 34.7% (inactive)
2. 92.2% (inactive)
3. 34.1% (inactive)
4. 47.7% (inactive)

Please give growth, item by item, for the list that follows.
1. C[C@H]1[C@H]2[C@H]3CC[C@@H]4[C@@]5(C)C/C(=C/c6cccnc6)C(=O)C(C)(C)[C@@H]5CC[C@@]4(C)[C@]3(C)CC[C@]23CO[C@]1(C)[C@@H](C(=O)/C=C\c1cccnc1)C3
2. O=c1c2cc(F)ccc2sc2c(Nc3cccnc3)nc3ccccc3c12
3. O=C1/C(=C/c2ccc(Br)cc2)C=C(c2ccccc2)N1CCc1ccccc1
4. CN1CCN(CCCOc2ccc3nc(Nc4ccc(F)c(F)c4)ccc3c2)CC1

1. 2.48% (active)
2. 94.1% (inactive)
3. 6.97% (active)
4. 26.5% (inactive)

----------
System: HCT-15 colon
Experiment: NCI-60 one-dose screen, 48 h
Conditions: 10 µM unless noted
This is part of a sample that, as a whole, favours compounds with a hit. Of some 83,000 tested, about 20% had one in any assay. The source made the active and inactive calls. The calls were made as follows: active = growth percent below 10; inactive = the rest.
Bench note: report the call from active, inactive

{"Compound": "COc1cc(N=Nc2cc(Cc3ccc(N(C)C)cc3)c(N)cc2N(C)C)c2ncccc2c1", "Class label": "active"}

Record lookup: outcome of this test for CC(=O)n1c(-c2ccc(Cl)cc2)nc2c(c1=O)C(c1ccc(Cl)cc1)c1sc3c(Cl)cccc3c1O2 (configuration not stated) ?
active

Record lookup: outcome of this test for O=C(Nc1ccc(-n2cc(-c3ccncc3)c(-c3ccc(Cl)c(O)c3)n2)cc1)N1CCOCC1 ?
inactive

Record lookup: outcome of this test for NC(N)=NN=C(c1ccccc1)c1ccccc1 ?
inactive

Record lookup: outcome of this test for O=C(NC(Cc1nnc2n(Cc3ccccc3)c(=O)c3c4c(sc3n12)CCCC4)c1ccc(Cl)cc1)c1ccccc1 (configuration not stated) ?
inactive

----------
Tested on: MDA-MB-435 melanoma
Assay: NCI-60 one-dose screen, 48 h
Details: 10 µM unless noted
The panel holds about 83,000 compounds, 20% with a hit somewhere; the sample as a whole holds those more often. Calls of active or inactive are those of the source. How the source made its calls: active means growth percent below 10; inactive means the rest.
Bench note: report the call from class 1 = active, class 0 = inactive

{"Compound": "Cc1ccc(S(=O)(=O)n2cc(CNc3ccc(N4CCOCC4=O)cc3)c3ccccc32)cc1", "Class label": "class 0"}

Record lookup: outcome of this test for Clc1cc(Cl)cc(Nc2ccc3cc(OCCCN4CCOCC4)ccc3n2)c1 ?
class 0

Record lookup: outcome of this test for O=C1CCC2=C3C4CCCCC4C(=O)C4CCCC(OC2C1)C34 (stereo unspecified) ?
class 1

Record lookup: outcome of this test for COc1cc(C(=O)/C=C/c2c(C(F)(F)F)nc3sccn23)cc(OC)c1OC ?
class 0

Record lookup: outcome of this test for CC(CCc1ccc(Cl)c(Cl)c1)NCc1ccc(C(C)(C)C)cc1 (stereo unspecified) ?
class 0

Record lookup: outcome of this test for CC/C=C1/C(=O)C=C[C@@H]1C/C=C\CCCC(=O)O ?
class 0

Record lookup: outcome of this test for COc1cc(Cn2ncc3ccc(NC(=O)c4cc5ccccc5oc4=N)cc32)cc(OC)c1OC ?
class 1

Record lookup: outcome of this test for N#Cc1nc(C#N)c(Sc2ccccc2)c(Sc2ccccc2)c1Sc1ccccc1 ?
class 1

Record lookup: outcome of this test for Cc1c(O)cc(-c2cnc(N/N=C\c3ccc(Cl)cc3)s2)c(O)c1C ?
class 0

Record lookup: outcome of this test for OC(COc1ccccc1Cl)COc1ccccc1Cl ?
class 0

Record lookup: outcome of this test for Cc1ccc(CCC(=O)Nc2ncc(Cc3cc(Cl)ccc3Cl)s2)o1 ?
class 1
